Sourced from paper PMC8509831

assay: WST cell viability assay; assay type: cell-based, human; conditions: human, HeLa cells, HeLa, 50 μg/mL, 48 h
Measured Parameter: viability at 48 h, 50 μg/mL (%)
Respond numerically; units are % and should not be typed.

Fill blank: measured viability at 48 h, 50 μg/mL of the compound O=c1c(O[C@@H]2O[C@H](CO)[C@@H](O)[C@H](O)[C@H]2O)c(-c2ccc(O)c(O)c2)oc2cc(O)cc(O)c12 [Quercetin-3-glucoside, quercetin 3-β-D-glucoside] is ____.
29.6

====

biological target: COX-2 (Homo sapiens, UniProt P35354); construct: purchased Cayman Chemicals 560131; experiment: COX-2 enzyme inhibitory assay (COX inhibitor screening kit); assay type: biochemical; details: mean ± SD, n = 3; read-out: Enzyme Inhibitory Effect IC50 COX-2 (converted)
Sequence (P35354 18-604): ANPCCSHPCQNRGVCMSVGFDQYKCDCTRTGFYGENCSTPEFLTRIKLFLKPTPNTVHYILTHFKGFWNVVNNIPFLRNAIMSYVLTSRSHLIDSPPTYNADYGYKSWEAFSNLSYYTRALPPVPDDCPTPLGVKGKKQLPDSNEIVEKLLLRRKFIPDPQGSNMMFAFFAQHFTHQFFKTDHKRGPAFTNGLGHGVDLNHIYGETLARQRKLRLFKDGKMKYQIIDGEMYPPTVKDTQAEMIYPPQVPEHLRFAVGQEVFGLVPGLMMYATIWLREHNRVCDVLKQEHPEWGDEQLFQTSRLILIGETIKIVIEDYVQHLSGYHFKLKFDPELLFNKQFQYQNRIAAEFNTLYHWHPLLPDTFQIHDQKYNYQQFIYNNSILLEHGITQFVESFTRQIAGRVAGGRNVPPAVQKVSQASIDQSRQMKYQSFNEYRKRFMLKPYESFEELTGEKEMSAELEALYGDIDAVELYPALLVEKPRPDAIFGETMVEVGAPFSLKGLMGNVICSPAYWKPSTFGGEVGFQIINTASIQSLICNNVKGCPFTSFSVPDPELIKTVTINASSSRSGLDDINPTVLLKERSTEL
Measured Parameter: IC50 (µM)
Respond numerically; units are µM and should not be typed.

Fill blank: measured IC50 of the compound O=C(CCc1ccc(O)cc1)c1c(O)cc(O)cc1O[C@@H]1O[C@H](CO)[C@@H](O)[C@H](O)[C@H]1O is ____.
83

Fill blank: measured IC50 of the compound O=c1c(O)c(-c2ccc(O)c(O)c2)oc2cc(O)cc(O)c12 is ____.
37.4

Fill blank: measured IC50 of the compound O=C(O)/C=C/c1ccc(O)cc1 is ____.
93.2

Fill blank: measured IC50 of the compound O=C(/C=C/c1ccc(O)c(O)c1)O[C@@H]1C[C@](O)(C(=O)O)C[C@@H](O)[C@H]1O is ____.
75.3

Fill blank: measured IC50 of the compound O=C(CCc1ccc(O)cc1)c1c(O)cc(O)cc1O is ____.
121

====

experiment: WST cell viability assay; format: cell-based, human; conditions: human, HeLa cells, HeLa, 40 μg/mL, 24 h
Measured Parameter: viability at 24 h, 40 μg/mL (%)
Respond numerically; units are % and should not be typed.

Fill blank: measured viability at 24 h, 40 μg/mL of the compound O=c1c(O[C@@H]2O[C@H](CO)[C@@H](O)[C@H](O)[C@H]2O)c(-c2ccc(O)c(O)c2)oc2cc(O)cc(O)c12 [Quercetin-3-glucoside, quercetin 3-β-D-glucoside] is ____.
83

====

Record form. Attribute: Enzyme Inhibitory Effect IC50 LOX-5. Fill in for each entry.
molecular target: LOX-5; experiment: 5-LOX enzyme inhibitory assay (polarographic, Clark oxygen electrode); assay type: biochemical, potato; details: mean ± SD, n = 3
Marks after values point to notes of the source that are not given here.

Form field - read-out: Enzyme Inhibitory Effect IC50 LOX-5; system: LOX-5; submitted item: O=C(O)/C=C/c1ccc(O)cc1
7.96 ± 0.76 ^d μg/mL

Form field - read-out: Enzyme Inhibitory Effect IC50 LOX-5; system: LOX-5; submitted item: Oc1cc(O)c2c(c1)O[C@H](c1ccc(O)c(O)c1)[C@H](O)C2 [Epicatechin]
10.09 ± 1.03 ^f μg/mL

Form field - read-out: Enzyme Inhibitory Effect IC50 LOX-5; system: LOX-5; submitted item: O=C(CCc1ccc(O)cc1)c1c(O)cc(O)cc1O
16.86 ± 1.22 ^h μg/mL

Form field - read-out: Enzyme Inhibitory Effect IC50 LOX-5; system: LOX-5; submitted item: O=C(CCc1ccc(O)cc1)c1c(O)cc(O)cc1O[C@@H]1O[C@H](CO)[C@@H](O)[C@H](O)[C@H]1O
18.98 ± 0.85 ^i μg/mL

Form field - read-out: Enzyme Inhibitory Effect IC50 LOX-5; system: LOX-5; submitted item: O=c1c(O[C@@H]2O[C@H](CO)[C@@H](O)[C@H](O)[C@H]2O)c(-c2ccc(O)c(O)c2)oc2cc(O)cc(O)c12 [Quercetin-3-glucoside, quercetin 3-β-D-glucoside]
2.31 ± 0.32 ^b μg/mL

Form field - read-out: Enzyme Inhibitory Effect IC50 LOX-5; system: LOX-5; submitted item: O=C(O)/C=C/c1ccc(O)c(O)c1
12.26 ± 0.91 ^g μg/mL

Form field - read-out: Enzyme Inhibitory Effect IC50 LOX-5; system: LOX-5; submitted item: O=C(/C=C/c1ccc(O)c(O)c1)O[C@@H]1C[C@](O)(C(=O)O)C[C@@H](O)[C@H]1O
9.98 ± 0.94 ^e μg/mL

====

Assay: WST cell viability assay
Format: cell-based, human
Details: human, HeLa cells, HeLa, 0.1 μg/mL, 48 h
Procedure: The viability of HeLa cells treated with […] (0-100 μg/mL, concentrations) was examined for 24-72 h using a colorimetric WST assay. […] Thereafter, the plates were shaken thoroughly for 1 min on a shaker at RT, and the absorbance of the reporter substrate was measured at 450 nm and 600 nm (reference wavelength 650 nm) using a microplate reader coupled with the Gen5 software (BioTek, Winooski, VT, USA).
Measured Parameter: viability at 48 h, 0.1 μg/mL (%)
Respond numerically; units are % and should not be typed.

Fill blank: measured viability at 48 h, 0.1 μg/mL of the molecule O=c1c(O[C@@H]2O[C@H](CO)[C@@H](O)[C@H](O)[C@H]2O)c(-c2ccc(O)c(O)c2)oc2cc(O)cc(O)c12 [Quercetin-3-glucoside, quercetin 3-β-D-glucoside] is ____.
115

====

Experiment: WST cell viability assay
Assay type: cell-based, human
Conditions: human, HeLa cells, HeLa, 40 μg/mL, 48 h
Method: The viability of HeLa cells treated with […] (0-100 μg/mL, concentrations) was examined for 24-72 h using a colorimetric WST assay. […] Thereafter, the plates were shaken thoroughly for 1 min on a shaker at RT, and the absorbance of the reporter substrate was measured at 450 nm and 600 nm (reference wavelength 650 nm) using a microplate reader coupled with the Gen5 software (BioTek, Winooski, VT, USA).
Measured Parameter: viability at 48 h, 40 μg/mL (%)
Respond numerically; units are % and should not be typed.

Fill blank: measured viability at 48 h, 40 μg/mL of the compound O=c1c(O[C@@H]2O[C@H](CO)[C@@H](O)[C@H](O)[C@H]2O)c(-c2ccc(O)c(O)c2)oc2cc(O)cc(O)c12 [Quercetin-3-glucoside, quercetin 3-β-D-glucoside] is ____.
36

====

target: COX-1 (Ovis aries); construct: purchased Cayman Chemicals 560131; assay: COX-1 enzyme inhibitory assay (COX inhibitor screening kit); type: biochemical
Measured Parameter: IC50 (µM)
Respond numerically; units are µM and should not be typed.

Fill blank: measured IC50 of the compound O=c1c(O[C@@H]2O[C@H](CO)[C@@H](O)[C@H](O)[C@H]2O)c(-c2ccc(O)c(O)c2)oc2cc(O)cc(O)c12 [Quercetin-3-glucoside, quercetin 3-β-D-glucoside] is ____.
7.8

Fill blank: measured IC50 of the compound Oc1cc(O)c2c(c1)O[C@H](c1ccc(O)c(O)c1)[C@H](O)C2 [Epicatechin] is ____.
63

====

assay: WST cell viability assay; format: cell-based, human; conditions: human, HeLa cells, HeLa, 10 μg/mL, 48 h
Measured Parameter: viability at 48 h, 10 μg/mL (%)
Respond numerically; units are % and should not be typed.

Fill blank: measured viability at 48 h, 10 μg/mL of the molecule O=c1c(O[C@@H]2O[C@H](CO)[C@@H](O)[C@H](O)[C@H]2O)c(-c2ccc(O)c(O)c2)oc2cc(O)cc(O)c12 [Quercetin-3-glucoside, quercetin 3-β-D-glucoside] is ____.
116

====

Record form. Attribute: IC50. Fill in for each entry.
target: COX-1 (Ovis aries, UniProt P05979); construct: purchased Cayman Chemicals 560131; assay: COX-1 enzyme inhibitory assay (COX inhibitor screening kit); type: biochemical; conditions: mean ± SD, n = 3; read-out: Enzyme Inhibitory Effect IC50 COX-1 (converted)
Sequence (P05979 25-600): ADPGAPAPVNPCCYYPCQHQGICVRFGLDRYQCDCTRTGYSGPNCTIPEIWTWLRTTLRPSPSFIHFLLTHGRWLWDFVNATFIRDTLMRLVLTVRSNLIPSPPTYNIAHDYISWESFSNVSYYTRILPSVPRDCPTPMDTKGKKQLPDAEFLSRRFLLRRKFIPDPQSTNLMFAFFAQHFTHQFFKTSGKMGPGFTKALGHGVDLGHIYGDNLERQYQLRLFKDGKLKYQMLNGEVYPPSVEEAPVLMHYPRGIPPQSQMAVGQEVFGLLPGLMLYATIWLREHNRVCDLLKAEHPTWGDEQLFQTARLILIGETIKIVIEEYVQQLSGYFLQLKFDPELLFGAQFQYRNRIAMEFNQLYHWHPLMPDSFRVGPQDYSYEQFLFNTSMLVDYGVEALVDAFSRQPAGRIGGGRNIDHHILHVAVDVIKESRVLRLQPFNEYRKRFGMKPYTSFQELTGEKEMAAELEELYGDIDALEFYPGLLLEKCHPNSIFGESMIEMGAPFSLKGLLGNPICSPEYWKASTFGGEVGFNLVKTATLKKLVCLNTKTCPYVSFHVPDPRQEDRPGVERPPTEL
The reply must contain the numeric value and, after it, the unit.

Form field - read-out: IC50; system: COX-1 (Ovis aries, UniProt P05979); submitted item: O=C(CCc1ccc(O)cc1)c1c(O)cc(O)cc1O[C@@H]1O[C@H](CO)[C@@H](O)[C@H](O)[C@H]1O
65.6 µM

Form field - read-out: IC50; system: COX-1 (Ovis aries, UniProt P05979); submitted item: O=C(CCc1ccc(O)cc1)c1c(O)cc(O)cc1O
91.7 µM

Form field - read-out: IC50; system: COX-1 (Ovis aries, UniProt P05979); submitted item: O=c1c(O)c(-c2ccc(O)c(O)c2)oc2cc(O)cc(O)c12
20.2 µM

Form field - read-out: IC50; system: COX-1 (Ovis aries, UniProt P05979); submitted item: O=C(/C=C/c1ccc(O)c(O)c1)O[C@@H]1C[C@](O)(C(=O)O)C[C@@H](O)[C@H]1O
39.7 µM

Form field - read-out: IC50; system: COX-1 (Ovis aries, UniProt P05979); submitted item: O=C(O)/C=C/c1ccc(O)cc1
55.4 µM

Form field - read-out: IC50; system: COX-1 (Ovis aries, UniProt P05979); submitted item: O=C(O)/C=C/c1ccc(O)c(O)c1
113 µM
